# tgt: KRAS G12C-BRAF complex (Homo sapiens, UniProt P01116+P62937, G12C)
# Construct: expressed in transfected cells
# Sequence (P01116 1-188 isoform P01116-2 G12C): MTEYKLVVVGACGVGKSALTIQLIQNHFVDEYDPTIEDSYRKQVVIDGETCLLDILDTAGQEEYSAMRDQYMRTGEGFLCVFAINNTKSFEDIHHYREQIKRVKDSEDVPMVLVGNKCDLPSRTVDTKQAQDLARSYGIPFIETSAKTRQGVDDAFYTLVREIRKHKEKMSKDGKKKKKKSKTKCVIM
# Sequence (P62937 whole entry): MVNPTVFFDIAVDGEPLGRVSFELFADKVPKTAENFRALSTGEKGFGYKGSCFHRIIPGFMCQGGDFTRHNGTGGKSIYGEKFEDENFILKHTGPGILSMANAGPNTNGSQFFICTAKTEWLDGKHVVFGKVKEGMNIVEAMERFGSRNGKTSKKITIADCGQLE
# assay-protocol: KRAS G12C-BRAF NanoBit assay in HEK293 cells
# Format: cell-based
# reported-conditions: HEK293 stable cell pool, 3 hours of incubation
readout-type: IC50 (µM)

Look over these answered cases.
compound	IC50 (µM)
CO[C@@H](C)c1ncc(N2CCN(C)CC2)cc1-c1c2c3cc(c(F)cc3n1CC(F)(F)F)-c1csc(n1)C[C@H](NC(=O)[C@H](C(C)C)N(C)C(=O)[C@H]1CC[C@@H](C#CC(F)(F)F)CC1)C(=O)N1CCC[C@H](N1)C(=O)OCC(C)(C)C2 (atropisomer, axis not shown; (M))	0.12
CO[C@@H](C)c1ncc(N2CCOCC2)cc1-c1c2c3cc(c(F)cc3n1CC(F)(F)F)-c1csc(n1)C[C@H](NC(=O)[C@H](C(C)C)N(C)C(=O)[C@H]1C[C@@H](C#CC(F)(F)F)C1)C(=O)N1CCC[C@H](N1)C(=O)OCC(C)(C)C2 (atropisomer, axis not shown; (M))	0.036
CCn1c(-c2cc(N3CCOCC3)cnc2[C@H](C)OC)c2c3cc(c(F)cc31)-c1csc(n1)C[C@H](NC(=O)[C@H](C(C)C)N(C)C(=O)[C@H]1C[C@@H](C#Cc3nccc(C(F)(F)F)n3)C1)C(=O)N1CCC[C@H](N1)C(=O)OCC(C)(C)C2 (atropisomer, axis not shown; (M))	0.085
CCn1c(-c2cc(N3CCOCC3)cnc2[C@H](C)OC)c2c3cc(c(F)cc31)-c1csc(n1)C[C@H](NC(=O)[C@H](C(C)C)N(C)C(=O)N1CC(C#CC(F)(F)F)C1)C(=O)N1CCCC(N1)C(=O)OCC(C)(C)C2 (stereo partly shown)	0.084
CO[C@@H](C)c1ncc(N2CCN(CC(F)(F)F)CC2)cc1-c1c2c3cc(c(F)cc3n1CC(F)(F)F)-c1csc(n1)C[C@H](NC(=O)[C@H](C(C)C)N(C)C(=O)N1CC(C#CC(F)(F)F)C1)C(=O)N1CCC[C@H](N1)C(=O)OCC(C)(C)C2 (atropisomer, axis not shown; (M))	0.24

A = CO[C@@H](C)c1ncc(N2CCN(C)CC2)cc1-c1c2c3cc(c(F)cc3n1CC(F)(F)F)-c1csc(n1)C[C@H](NC(=O)[C@@H](CC(=O)N1CC(C#CC(F)(F)F)C1)C(C)C)C(=O)N1CCC[C@H](N1)C(=O)OCC(C)(C)C2
B = CCn1c(-c2cc(N3CCN(C)CC3)cnc2[C@H](C)OC)c2c3cc(c(F)cc31)-c1csc(n1)C[C@H](NC(=O)[C@H](C(C)C)N(C)C(=O)[C@H]1C[C@@H](C#CC(F)(F)F)C1)C(=O)N1CCC[C@H](N1)C(=O)OCC(C)(C)C2 (atropisomer, axis not shown; (M))
Parameter metric = IC50. Return the lower-valued option from A and B . Refer to your chosen item by its label in the answer.
B
(B: 0.029 µM, A: 0.075 µM)

I = CO[C@@H](C)c1ncc(N2CCN(C)CC2)cc1-c1c2c3cc(c(F)cc3n1CC(F)(F)F)-c1csc(n1)C[C@H](NC(=O)[C@H](C(C)C)N(C)C(=O)N1CC(C#CC(F)(F)F)C1)C(=O)N1CCC[C@H](N1)C(=O)OCC(C)(C)C2 (atropisomer, axis not shown; (M))
II = CO[C@@H](C)c1ncc(N2CCN(C)CC2)cc1-c1c2c3cc(c(F)cc3n1CC(F)(F)F)-c1csc(n1)C[C@H](NC(=O)[C@H](C(C)C)N(C)C(=O)[C@H]1C[C@@H](C#Cc3ncccn3)C1)C(=O)N1CCC[C@H](N1)C(=O)OCC(C)(C)C2 (relative stereo)
Lower value of IC50 belongs to which: I or II ? Refer to your chosen item by its label in the answer.
I
(I: 0.018 µM, II: 0.106 µM)
